This collection of values is drawn from the supplement of paper PMC11061612.

- Test system: IM-95 (Gastric Carcinoma)
- Protocol Text: combination Emax (second highest fraction inhibited in the dose matrix, 72 h); higher = more inhibition; extreme values may be limits of the assay
Below: a set of entries, each annotated with reported combination Emax.
The answer should be a number; do not append a unit.

As a guide, the following entries are already answered.
INSERT INTO measurements (compound, endpoint, measurement) VALUES
  ('CC(=O)c1c(C)c2cnc(Nc3ccc(N4CCNCC4)cn3)nc2n(C2CCCC2)c1=O [Palbociclib] + CN(CC[C@H](CSC1=CC=CC=C1)NC2=C(C=C(C=C2)S(=O)(=O)NC(=O)C3=CC=C(C=C3)N4CCC(CC4)[C@H](C5=CC=CC=C5C6=CC=C(C=C6)Cl)O)S(=O)(=O)C(F)(F)F)CCO [AZD4320] (first compound max 10 µM, 7x7, partner max 1 µM)', 'combination Emax', 0.471),
  ('NC1(C(=O)N[C@@H](CCO)c2ccc(Cl)cc2)CCN(c2ncnc3[nH]ccc23)CC1 [Capivasertib] + CC(C)n1c(=O)n(C)c2cnc3cc(F)c(-c4ccc(OCCCN5CCCCC5)nc4)cc3c21 [AZD1390] (first compound max 10 µM, 7x7, partner max 0.3 µM)', 'combination Emax', 0.333),
  ('Cc1cc2ncnn2cc1Nc1ncc2c(n1)n(C1CCOCC1)c(=O)n2C [AZD7648] + CCN(CCO)CCCOc1ccc2c(Nc3cc(CC(=O)Nc4cccc(F)c4)[nH]n3)ncnc2c1 [AZD2811] (first compound max 10 µM, 7x7, partner max 1 µM)', 'combination Emax', 0.424);

Lab note: next compound to report on.
Given C[C@@H]1COCCN1c1cc(C2([S@](C)(=N)=O)CC2)nc(-c2ccnc3[nH]ccc23)n1 [AZD6738] + O=C(c1cc(Cc2n[nH]c(=O)c3ccccc23)ccc1F)N1CCN(C(=O)C2CC2)CC1 [Olaparib] (first compound max 10 µM, 7x7, partner max 10 µM) , state its recorded combination Emax.
0.459

###

- Tested on: SK-GT-4 (Esophageal Adenocarcinoma);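 note: after 72 h of two-drug dosing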
- Protocol Text: Bliss excess, mean over the matrix (fraction); higher = more synergy
Endpoint: Bliss excess
The answer should be a number; do not append a unit.

As a guide, the following entries are already answered.
INSERT INTO results (compound, target_or_test_system, measurement) VALUES
  ('Cc1c2c(nn1C)CSCc1cc(n(C)n1)CSc1cc(c3ccccc3c1)OCCCc1c(C(=O)O)n(C)c3c-2c(Cl)ccc13 [AZD5991] + Cc1cc2ncnn2cc1Nc1ncc2c(n1)n(C1CCOCC1)c(=O)n2C [AZD7648] (first compound max 1 µM, 7x7, partner max 10 µM)', 'SK-GT-4 (Esophageal Adenocarcinoma)', -0.0651),
  ('CN(C)CCCOc1ccc(-c2ccc3ncc4c(c3c2)n(C2CCOCC2)c(=O)n4C)cn1 [AZD0156] + C=CCn1c(=O)c2cnc(Nc3ccc(N4CCN(C)CC4)cc3)nc2n1-c1cccc(C(C)(C)O)n1 [AZD1775] (first compound max 1 µM, partner max 1 µM)', 'SK-GT-4 (Esophageal Adenocarcinoma)', -0.0676),
  ('COc1nnc2ccc(N3CCC(c4ccc(OCCN5CCN(C)C(=O)[C@H]5C)cc4)CC3)nn12 [AZD5153] + CC1(C)CCC(CN2CCN(c3ccc(C(=O)NS(=O)(=O)c4ccc(NCC5CCOCC5)c([N+](=O)[O-])c4)c(Oc4cnc5[nH]ccc5c4)c3)CC2)=C(c2ccc(Cl)cc2)C1 [Venetoclax] (first compound max 1 µM, 7x7, partner max 1 µM)', 'SK-GT-4 (Esophageal Adenocarcinoma)', -0.0444),
  ('C[C@@H]1COCCN1c1cc(C2([S@](C)(=N)=O)CC2)nc(-c2ccnc3[nH]ccc23)n1 [AZD6738] + Nc1ccn([C@@H]2O[C@H](CO)[C@@H](O)C2(F)F)c(=O)n1 [Gemcitabine] (first compound max 10 µM, 7x7, partner max 0.3 µM)', 'SK-GT-4 (Esophageal Adenocarcinoma)', 0.023),
  ('COc1nnc2ccc(N3CCC(c4ccc(OCCN5CCN(C)C(=O)[C@H]5C)cc4)CC3)nn12 [AZD5153] + Cc1c2c(nn1C)CSCc1cc(n(C)n1)CSc1cc(c3ccccc3c1)OCCCc1c(C(=O)O)n(C)c3c-2c(Cl)ccc13 [AZD5991] (first compound max 1 µM, 7x7, partner max 1 µM)', 'SK-GT-4 (Esophageal Adenocarcinoma)', -0.0304),
  ('CCN(CCO)CCCOc1ccc2c(Nc3cc(CC(=O)Nc4cccc(F)c4)[nH]n3)ncnc2c1 [AZD2811] + C=CCn1c(=O)c2cnc(Nc3ccc(N4CCN(C)CC4)cc3)nc2n1-c1cccc(C(C)(C)O)n1 [AZD1775] (first compound max 1 µM, partner max 1 µM)', 'SK-GT-4 (Esophageal Adenocarcinoma)', -0.0545);

Given C[C@@H](Oc1cc(-c2cnn(C3CCNCC3)c2)cnc1N)c1c(Cl)ccc(F)c1Cl [Crizotinib] + CC1=C(C(=CC=C1)Cl)NC(=O)C2=CN=C(S2)NC3=CC(=NC(=N3)C)N4CCN(CC4)CCO [Dasatinib] (first compound max 10 µM, 7x7, partner max 2 µM) , state its recorded Bliss excess.
0.0033
